The reported measurements were obtained from patent US20240132624A1.

molecular target: T1, cyno FcRn/b2M (cyno, UniProt Q8SPV9 24-297; Q8SPW0 21-119, biotinylated); assay: SPR off-rate; pH 7.4 vs pH 6.0;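 note: surface plasmon resonance with diluted periplasmic extracts flowed over ligand surfaces, 120 s association and 600–3600 s dissociation at 25 °C, running buffer containing 150 mM NaCl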
T1 construct: bought recombinant biotinylated protein (Immunitrack ITF05 or ACRO FCM-C82W5); also called cFcRn; cFcRn/cb2M
T1 sequence (Q8SPV9 24-297 limits assumed, chain 1 of 2): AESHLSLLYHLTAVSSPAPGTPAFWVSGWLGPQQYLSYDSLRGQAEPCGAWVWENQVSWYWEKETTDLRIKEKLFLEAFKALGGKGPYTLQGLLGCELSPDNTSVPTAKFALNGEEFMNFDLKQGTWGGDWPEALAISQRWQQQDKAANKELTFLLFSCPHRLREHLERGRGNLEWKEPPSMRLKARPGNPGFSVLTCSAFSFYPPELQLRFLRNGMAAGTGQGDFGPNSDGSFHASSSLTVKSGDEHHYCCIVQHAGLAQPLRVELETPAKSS
T1 sequence (Q8SPW0 21-119 limits assumed, chain 2 of 2): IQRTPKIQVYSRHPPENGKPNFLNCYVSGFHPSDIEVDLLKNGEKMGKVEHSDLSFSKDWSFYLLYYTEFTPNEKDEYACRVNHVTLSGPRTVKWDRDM
experimental-readout: kd ratio pH 7.4/6.0

## Input Note down kd ratio pH 7.4/6.0 recorded for T0263018B11 S30K (VHH, name in Kabat numbering, FLAG3-His6 tagged) VHH: EVQLVESGGGVVQPGGSLRLSCAASGFTFKSYAMYWVRQAPGKGLEWVSAISSGGGSTDYADSVKGRFTISRDNSKNTLYLQMNSLRPEDTALYYCAADTLYTSLTWYSYWGQGTLVTVSS
## Output 18

## Input Note down kd ratio pH 7.4/6.0 recorded for T0263018B11 Y32L (VHH, name in Kabat numbering, FLAG3-His6 tagged) VHH: EVQLVESGGGVVQPGGSLRLSCAASGFTFSSLAMYWVRQAPGKGLEWVSAISSGGGSTDYADSVKGRFTISRDNSKNTLYLQMNSLRPEDTALYYCAADTLYTSLTWYSYWGQGTLVTVSS
## Output 46

## Input Note down kd ratio pH 7.4/6.0 recorded for T0263018B11 S31N (VHH, name in Kabat numbering, FLAG3-His6 tagged) VHH: EVQLVESGGGVVQPGGSLRLSCAASGFTFSNYAMYWVRQAPGKGLEWVSAISSGGGSTDYADSVKGRFTISRDNSKNTLYLQMNSLRPEDTALYYCAADTLYTSLTWYSYWGQGTLVTVSS
## Output 69

## Input Note down kd ratio pH 7.4/6.0 recorded for T0263018B11 T57H (VHH, name in Kabat numbering, FLAG3-His6 tagged) VHH: EVQLVESGGGVVQPGGSLRLSCAASGFTFSSYAMYWVRQAPGKGLEWVSAISSGGGSHDYADSVKGRFTISRDNSKNTLYLQMNSLRPEDTALYYCAADTLYTSLTWYSYWGQGTLVTVSS
## Output 41
